// reported GI50 for each item listed
Tested on: HCC-2998 colon
Method notes: NCI tumour cell line growth inhibition, 48 h
Experimental readout: GI50

Compound: CC(C)[C@H]1CC[C@H]2[C@@H](CC[C@H]3[C@](C)(CN)CCC[C@]23C)C1
System: HCC-2998 colon
Experimental readout: GI50
Recorded measurement: 1.79 µM
--
Compound: CC/C(=C(/c1ccc(OCCN(C)C)cc1)c1ccc(OC(=O)CCC(=O)c2c(C)[nH]c(/C=C3\N=C(c4ccc[nH]4)C=C3OC)c2C)cc1)c1ccccc1
System: HCC-2998 colon
Experimental readout: GI50
Recorded measurement: 3.72 µM
--
Compound: CCOc1ccccc1NC(=O)c1cc2ccccc2cc1O
System: HCC-2998 colon
Experimental readout: GI50
Recorded measurement: 4 µM
--
Compound: COc1cc(-n2cc(-c3ccc(F)cc3)nc2SCc2ccccc2)cc(OC)c1OC
System: HCC-2998 colon
Experimental readout: GI50
Recorded measurement: > 100 µM
--
Compound: CCCc1cc(O)c2c3c(c(=O)oc2c1)CN(C)CC3
System: HCC-2998 colon
Experimental readout: GI50
Recorded measurement: 30.7 µM
--
Compound: CC(=O)CCc1ccc(OC2OC(COC(=O)c3cc(O)c(O)c(O)c3)C(O)C(O)C2OC(=O)/C=C/c2ccccc2)cc1 (centres undefined)
System: HCC-2998 colon
Experimental readout: GI50
Recorded measurement: 15.3 µM
--
Compound: N#Cc1ncc(-c2ccc(C(F)(F)F)cc2)c(NCc2cc(C(F)(F)F)cc(C(F)(F)F)c2)n1
System: HCC-2998 colon
Experimental readout: GI50
Recorded measurement: 4.17 µM
--
Compound: CC(=O)Nc1ccc(/C=C/C(=O)c2ccccc2)cc1
System: HCC-2998 colon
Experimental readout: GI50
Recorded measurement: 15.5 µM
--
Compound: CN(c1cc2ncc(=O)[nH]c2cc1NC(N)=NCc1ccc(Cl)cc1)C1CCCCC1
System: HCC-2998 colon
Experimental readout: GI50
Recorded measurement: 1.73 µM

----------
Tested on: A498 renal
Method notes: NCI tumour cell line growth inhibition, 48 h
// reported TGI for each item listed

Compound: N#CCCN(c1ccc(/C=C2\N=C(Cc3ccccc3)OC2=O)cc1)S(=O)(=O)c1ccccc1
TGI: > 100 µM

Compound: COc1cc(OC)cc(OCc2ccc3nc(-c4ccccc4)c(Cl)nc3c2)c1
TGI: 76.8 µM

Compound: COc1ccc(/C=C/c2sc3ccccc3[n+]2CCCCI)cc1OC
TGI: > 10 µM

Compound: CC(=O)Oc1c(C)c2c(O)c3c1C1=C(OCOC1=C(C)C3=O)/C(C)=C\C(C)(O)C(O)C(C)C(O)C1C(=O)OC(C(C)C1O)C(C)(O)/C=C/C=C(C)C(=O)N2 (stereo not given)
TGI: > 100 µM

Compound: CC(=O)N1c2ccccc2C2=CC3C4C(=O)N(c5ccccc5)C(=O)C4C21C1C(=O)N(c2ccccc2)C(=O)C31 (stereo not given)
TGI: > 100 µM

Compound: O=c1[nH]c2ccc(Cl)cc2c2oc(-c3ccccc3)nc12
TGI: 43.4 µM

Compound: COc1ccc(NC(=O)CC(=O)N2N=C(N(CCC#N)c3ccccc3Cl)CC2c2ccccc2)cc1 (stereo not given)
TGI: > 100 µM

Compound: COc1cc(/C=N/n2c(Cc3ccc(Cl)cc3)n[nH]c2=O)cc(OC)c1OC
TGI: > 100 µM

Compound: CN(C)c1ccc(/C=C(\NC(=O)c2ccccc2)C(=O)NCC(=O)O)cc1
TGI: > 100 µM

Compound: O=c1[nH]cnc2c1sc1nc3ccccc3n12
TGI: > 100 µM
